System: intracellular proteome of ENR+CD and ENR organoids
Assay remarks: LC-MS/MS TMT proteomics of ENR+CD versus ENR organoids
Type: cell-based, C57BL/6 mice
Conditions: protein abundance ratio ENR+CD versus ENR organoids, sample pair M1-2; LC-MS/MS TMT proteomics
Text: Because PCs are highly secretory, protein-rich cells, Applicants sought to assess the total intracellular proteome between conditions through liquid chromatography mass spectrometry (LC-MS/MS)-based proteomics. Applicants quantified relative protein abundance across eight samples using isobaric mass tag labeling from four ENR and four ENR+CD samples (M1-1 through M2-2, first digit denotes biological donor, second digit denotes technical replicate) (FIG. 3A). […]
Attribute measured: M1-2 Log2 Median Normalized
Answer using only a numeral; do not append any unit.

Request: Using the record for Q9EPC5 (protein, UniProt Q9EPC5 1-134, looked up, full-length) MPADLSGTWNLLSSDNFEGYMLALGIDFATRKIAKLLKPQKVIEQNGDSFTIQTCSSLRNYLVKFKVGEEFEEDNKGLDNRKCTSLVTWENDKLTCVQRGEKKNRGWSHWIEGDQLHLEMFCEGQVCKQTFQRA , report its M1-2 Log2 Median Normalized.
Response: −2.064
